Tested on: normal primary NK cells, pool 1 (3 donors), resting (IL-2 0 ng/mL);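 also: normalised to DMSO-only wells as negative and benzethonium chloride as positive control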
Assay: percent inhibition of viability; higher = more inhibition
Conditions: 72 h; 100 nM
Overview of reported percent inhibition of viability across a group of compounds:
Give the number; % is assumed, so skip it.

Recorded percent inhibition of viability, per entry:
Cc1cccc(-c2nn3c(c2-c2ccnc4ccc(C(N)=O)cc24)CCC3)n1 [Galunisertib] (max concentration tested 1000 nM): 11.9
COc1cc(OC)c(/C=C/S(=O)(=O)Cc2ccc(OC)c(NCC(=O)O)c2)c(OC)c1 [Rigosertib] (max concentration tested 10000 nM): 6.87
CCc1cnn2c(NCc3ccc[n+]([O-])c3)cc(N3CCCC[C@H]3CCO)nc12 [Dinaciclib] (max concentration tested 1000 nM): 91.6
C[C@@H]1C[C@H]2[C@@H]3CCC4=CC(=O)C=C[C@]4(C)[C@@]3(F)[C@@H](O)C[C@]2(C)[C@@]1(O)C(=O)CO [Dexamethasone] (max concentration tested 10000 nM): 83.1
Cc1c(CN2CCN(C(=O)[C@H](C)O)CC2)sc2c(N3CCOCC3)nc(-c3cnc(N)nc3)nc12 [Apitolisib] (max concentration tested 10000 nM): -6.11

Query: So what's the measured percent inhibition of viability for this one? C[C@@H](C(=O)O)c1ccc(-c2ccccc2)c(F)c1 [Tarenflurbil] (max concentration tested 10000 nM)
Response: 4.52
